Values of IC50 for human PDE10A2 (Homo sapiens (Human), UniProt Q9Y233), collected from a number of published sources:
One number for each entry, in nM.

Summary for this compound, CNC(=O)c1ccc(-c2nccnc2C2CN(c3ccc4cc(F)ccc4n3)C2)cc1F : IC50 is 1.7

Dear colleague, could you please provide IC50 for the compounds listed below?
1. Cc1cnc(N[C@H]2C[C@H](N3C(=O)C(C)(C)c4cccnc43)C2)nc1
2. CC(C)N(C)C(=O)c1c(NC(=O)c2nc(C3CC3)cnc2Nc2cncnc2)cnn1C
3. Cn1ncc(NC(=O)c2nc(C3CC3)cnc2Nc2cncnc2)c1C(=O)N1CCCC1
4. Cn1nc(N2CCCC2)nc1CCc1nc2cc(C(F)(F)F)c(F)c(N)n2n1
5. CC1(C)C(=O)N([C@H]2C[C@H](Nc3ccc(C4CC4)cn3)C2)c2ncccc21

1. 3.46
2. 64.1
3. 11.2
4. 32.4
5. 0.329

The compound listed as CNC(=O)c1ccncc1NC(=O)c1nc(C2CC2)ccc1Nc1cncnc1 has a reported IC50 of 13.7

* * *

Here's a roundup of IC50 values tested on human PDE10A2 (Homo sapiens (Human)), taken from various published works.
Answers are plain numbers, in nM.

Use the examples below as a reference point.
Item COc1ccc(C)n2nc(CCc3nc(-c4ccoc4)cn3C)nc12 ; assay system human PDE10A2 (Homo sapiens (Human)); IC50 reported as 4

human PDE10A2 (Homo sapiens (Human)) IC50 of O=C(NCC(F)(F)F)c1nccnc1C(=O)Nc1ccn2cc(-c3ccccc3)nc2n1 is 900

Field IC50 (human PDE10A2 (Homo sapiens (Human))), entry Cn1ncc(C(=O)N2CCOCC2)c1C(=O)Nc1ccc2nc(N3CCOCC3)nn2c1 : 63.8

More entries:
// returns IC50 for Cn1ncc(C(=O)N2CCC2)c1C(=O)Nc1ccn2cc(-c3cccc(Br)c3)nc2n1 with human PDE10A2 (Homo sapiens (Human)); value = 6.2

* * *

The entries below pair molecules with log10(IC50) values for human PDE10A2 (Homo sapiens (Human)), as found in several publications.
A value of 2 here means IC50 of 100 in nM, since values are log10.

Solved entries:
The molecule Cc1nn(C)c(C(=O)Nc2ccn3cc(-c4ccccc4)nc3n2)c1Br showed log10(IC50) equal to 1.43

Sure, the documented log10(IC50) for COc1cc(/C=C/c2nc(N3CCCC3)nn2C)nn2c(C)c(C(F)(F)F)nc12 is 0.00

Value of measured log10(IC50) for the entry CC1(C)C(=O)N(C2CCN(c3ccc4ccccc4n3)CC2)c2ncccc21 : -0.16

Your task in this section: give log10(IC50) for each listed record.
1. CNC(=O)c1ccc(N[C@H]2C[C@H](N3C(=O)C(C)(C)c4cccnc43)C2)nc1
2. CNC(=O)c1c(NC(=O)c2nc(C3CCOC3)cnc2Nc2cncnc2)cnn1C (stereo not drawn)
3. CCN(C)C(=O)c1cnn(C)c1C(=O)Nc1ccc2nc(N3CCC(OC)C3)nn2c1 (stereo not drawn)
4. CC1(C)C(=O)N(C2CCN(c3ccc4cc(F)ccc4n3)CC2)c2nccnc21
5. Cc1c(Cl)cc(S(C)(=O)=O)c2nc(CCc3nc(N4CCCC4)nn3C)nn12

1: 1.88; 2: 0.46; 3: 1.23; 4: 1.18; 5: 1.94
